phosphorylation enrichment values by entry
biological target: Hck (UniProt P08631); test: phosphorylation enrichment, bacterial display (enrichment ratio); higher = better substrate or ligand; peptides without Tyr show the background;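 note: 11-residue human phosphosite peptides and single-mutation variants displayed on the E. coli surface, counted by deep sequencing, each peptide's frequency after selection divided by its frequency in the unselected input library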;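 note: frequency after pTyr selection over input frequency; kinase dosed for 20-30% of maximal phosphorylation in three min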
Sequence (P08631 whole entry, looked up): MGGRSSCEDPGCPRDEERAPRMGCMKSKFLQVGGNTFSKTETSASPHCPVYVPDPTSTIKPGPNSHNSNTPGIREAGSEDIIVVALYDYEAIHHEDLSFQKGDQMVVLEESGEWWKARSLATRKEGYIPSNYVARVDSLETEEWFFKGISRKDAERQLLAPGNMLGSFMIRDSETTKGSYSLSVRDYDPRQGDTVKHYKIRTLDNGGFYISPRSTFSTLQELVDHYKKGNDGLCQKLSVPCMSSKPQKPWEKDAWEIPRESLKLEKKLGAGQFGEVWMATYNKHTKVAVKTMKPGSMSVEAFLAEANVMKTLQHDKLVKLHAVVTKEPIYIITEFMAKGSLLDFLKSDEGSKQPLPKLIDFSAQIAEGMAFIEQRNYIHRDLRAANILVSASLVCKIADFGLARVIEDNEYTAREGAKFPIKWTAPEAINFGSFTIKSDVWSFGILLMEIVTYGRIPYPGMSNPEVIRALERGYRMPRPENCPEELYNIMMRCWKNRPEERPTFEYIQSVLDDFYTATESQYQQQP

Monomer sequence	phosphorylation enrichment
EKAEVYRSENE [RIOK2_Y348_G349R]	0.499
TNGFTCGSSHQ [MANEA_Y331_Y331C]	0.477
NHQFDYTFHWT [CSNK1A1_Y294_D297H_YF]	0.47
KATKGYLDDPT [G6PD_Y322_E317K]	0.417
LENSTYQFIHV [CRB1_Y760_R764H_YF]	8.87
PVVKLYATEGR [RP1_Y199_D202E]	0.794
KKDGPYDVVVL [PARK7_Y67_E64D]	0.507
EKIANYKEGTF [CLRN1_Y171_YF]	0.4
MFNPYYGLFEY [NEDD4L_Y680]	7.23
EEGNPYFSSAR [MCCC2_Y520_YF]	0.638
FKEDPYLVVNP [MCM6_Y810_E806K_YF]	0.718
DGNTRYSTFSE [TKTL1_Y318_D315N]	0.418
LTEEKYELKEG [TREM1_Y29]	0.782
WVYNHYRWFIW [BRCA2_Y2624_I2627F]	0.403
TEFSQYMRRKN [MAX_Y73_I71S_YF]	0.715
KANEYYPVVLI [ADAMTS18_Y765]	0.693
QQTYTYDSGIH [JUP_Y22]	1.61
VPLATYMQIYK [RPL21_Y30_R32Q]	2.01
NRLTDYYELLL [BBS10_Y536_P539L]	1.46
DFLEKYFKFGS [NNMT_Y24_YF]	0.521
AEPPDYSPVTQ [ADGRG2_Y285_H290Q]	0.557
FADTAYNFRHG [PAH_Y166_I164T_YF]	0.379
TFGVLYKARNK [CDK2_Y19_V18L_YF]	0.561
AVSEGYKDFRA [CDA_Y79]	0.452
NIRKKYYRAIL [CHD7_Y1217_Q1214R]	0.395

====

biological target: Fyn (UniProt P06241); experiment: phosphorylation enrichment, bacterial display (enrichment ratio); higher = better substrate or ligand; peptides without Tyr show the background
Sequence (P06241 whole entry, looked up): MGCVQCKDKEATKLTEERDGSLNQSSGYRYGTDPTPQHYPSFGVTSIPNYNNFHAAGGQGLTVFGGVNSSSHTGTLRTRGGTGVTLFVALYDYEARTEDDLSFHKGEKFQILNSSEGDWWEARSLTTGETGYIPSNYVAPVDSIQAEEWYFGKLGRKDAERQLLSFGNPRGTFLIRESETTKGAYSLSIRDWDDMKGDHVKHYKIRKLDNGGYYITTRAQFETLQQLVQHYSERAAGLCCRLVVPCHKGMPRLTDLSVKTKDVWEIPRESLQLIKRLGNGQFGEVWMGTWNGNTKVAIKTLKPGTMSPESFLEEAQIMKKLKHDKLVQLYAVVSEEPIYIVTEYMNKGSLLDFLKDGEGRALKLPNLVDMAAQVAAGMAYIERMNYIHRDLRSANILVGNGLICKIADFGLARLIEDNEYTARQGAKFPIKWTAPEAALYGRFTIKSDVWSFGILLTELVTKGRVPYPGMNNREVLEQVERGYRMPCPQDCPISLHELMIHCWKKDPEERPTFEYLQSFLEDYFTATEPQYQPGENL
Assay endpoint: phosphorylation enrichment

Monomer sequence	Recorded measurement
FAKSVYWDNTL [NUP107_Y296_E298D_YF]	0.679
DSRRDYVSQFE [APOA1_Y53_G50R]	0.409
VIVRMYDYHVL [RPF2_Y109_G106V]	0.499
TDTQLYGRFGS [ITGA2B_Y384_G380D]	11.1
ERCAQYKKDGA [ALDOA_Y138]	0.394

====

phosphorylation enrichment values by entry
target: Fyn (UniProt P06241); test: phosphorylation enrichment, bacterial display (enrichment ratio); higher = better substrate or ligand; peptides without Tyr show the background

Monomer sequence	phosphorylation enrichment
ELPQTYCVSGP [DYSF_Y1684_G1679E]	0.469
FVPSNYVAEDR [FRK_Y104_I100V_YF]	0.439
TKDTFHKQPMF [GBA_Y451_Y451H]	0.333
LRRFIYRPPDQ [OTOF_Y1231_R1236Q]	0.479
RLLRGYNQSAY [HLA-C_Y137_D138N]	0.41
LIGRGYDDPEV [HSPA9_Y128_R127G]	0.975
SVKVYYKKCWF [EPHA7_Y202_S207F]	0.375
KDIENYIQDGK [RAD50_Y964]	0.433
ARRHPYFYAPE [ALB_Y172]	0.641
KDLPNYNWNSF [KISS1_Y112]	0.446
LRLFSYSTTIR [CYP7B1_Y365_S363F]	0.421
ENELTYFCFKK [CD59_Y86_C89Y_YF]	4.33
AEMKRYSESSS [RAI14_Y869_A870S]	0.503
KAWTIYRPEDS [ZBP1_Y165]	0.494
NRLTDYYELLL [BBS10_Y536_P539L]	1.1
HRFAAYFQQGD [GPI_Y351]	0.633
KLLLKYSFHDV [RNF213_Y4141]	0.418
TDLAFYLVREG [ASL_Y376_K380E_YF]	0.437
AFRRGYFDEEM [PLEC_Y2971_YF]	0.622
EGGFAYVPLKD [PRIM2_Y208_D204G]	0.369
FEGAIYRKDIG [GART_Y417_V421I]	0.524
LTERSYSFVTT [ACTA1_Y200_G199S]	0.622
AVLALYNSTRD [TGFB1_Y81]	0.462
AKRKNYAPVTM [CFAP47_Y557_A561T]	0.387
IRDLKYTIENP [SND1_Y178]	0.456
